Value source: paper PMC7367925

Can you tell me PoD PR - anta for the items I'm about to list?
# assayed.target: Progesterone receptor (Homo sapiens, UniProt P06401)
# Construct: host or cells: U-2 OS
# Sequence (P06401 1-933): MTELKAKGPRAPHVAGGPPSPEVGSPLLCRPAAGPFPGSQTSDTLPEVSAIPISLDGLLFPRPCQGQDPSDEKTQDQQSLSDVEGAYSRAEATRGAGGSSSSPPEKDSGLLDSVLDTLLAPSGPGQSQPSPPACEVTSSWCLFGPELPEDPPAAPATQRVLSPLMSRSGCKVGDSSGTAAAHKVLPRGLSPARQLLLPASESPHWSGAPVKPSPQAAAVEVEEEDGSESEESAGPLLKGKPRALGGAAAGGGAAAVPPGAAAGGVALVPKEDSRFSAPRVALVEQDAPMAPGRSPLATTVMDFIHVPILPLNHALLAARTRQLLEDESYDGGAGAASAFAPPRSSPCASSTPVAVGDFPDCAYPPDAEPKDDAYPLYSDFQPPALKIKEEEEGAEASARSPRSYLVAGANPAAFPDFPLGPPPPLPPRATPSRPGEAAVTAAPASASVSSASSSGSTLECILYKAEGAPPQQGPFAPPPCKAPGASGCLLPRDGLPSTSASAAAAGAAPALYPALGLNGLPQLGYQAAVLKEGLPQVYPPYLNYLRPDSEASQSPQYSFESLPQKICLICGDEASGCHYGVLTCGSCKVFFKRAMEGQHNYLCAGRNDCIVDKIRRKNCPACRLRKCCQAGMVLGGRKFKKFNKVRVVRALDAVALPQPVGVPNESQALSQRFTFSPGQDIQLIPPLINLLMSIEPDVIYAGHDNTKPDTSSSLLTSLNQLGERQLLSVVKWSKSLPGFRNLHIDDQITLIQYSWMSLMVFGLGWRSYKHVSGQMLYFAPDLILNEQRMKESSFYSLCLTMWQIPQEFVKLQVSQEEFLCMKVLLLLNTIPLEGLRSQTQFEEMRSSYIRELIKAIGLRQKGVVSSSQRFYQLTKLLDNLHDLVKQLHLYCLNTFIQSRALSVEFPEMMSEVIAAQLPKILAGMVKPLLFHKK
# assay.method.text: PR-anti CALUX
# Format: cell-based
# stated.conditions: 24 h exposure, lowest effect level PC20, reference agonist at EC50, means from 3 assay runs

As a guide, the following entries are already answered.
CC(C)(C)C(O)(CCc1ccc(Cl)cc1)Cn1cncn1 (stereo not drawn)    5.6 -log(M)
CCCC(CCC)C(=O)O    3.1 -log(M)
CC(=O)O[C@H]1C(=O)[C@@]2(C)[C@H]([C@H](OC(=O)c3ccccc3)[C@]3(O)C[C@H](OC(=O)[C@H](O)[C@@H](NC(=O)c4ccccc4)c4ccccc4)C(C)=C1C3(C)C)[C@]1(OC(C)=O)CO[C@@H]1C[C@@H]2O    7.4 -log(M)
O=P(Oc1ccccc1)(Oc1ccccc1)Oc1ccccc1 [Triphenyl phosphate]    5.2 -log(M)
Clc1cc(Cl)c(-c2cc(Cl)c(Cl)c(Cl)c2Cl)cc1Cl    6.3 -log(M)

Kindly consider the entry below.
Form field: PoD PR - anta recorded for CO[C@H]1/C=C/O[C@@]2(C)Oc3c(C)c(O)c4c(O)c(c(/C=N/N5CCN(C)CC5)c(O)c4c3C2=O)NC(=O)/C(C)=C\C=C\[C@H](C)[C@H](O)[C@@H](C)[C@@H](O)[C@@H](C)[C@H](OC(C)=O)[C@@H]1C with Progesterone receptor (Homo sapiens, UniProt P06401) (enter value)
4.8 -log(M)
